Each recorded value in this set is attributed to the DeepSol protein solubility set.

experiment: soluble on expression in E. coli; label from the status in PepcDB or PDB records

input-sequence | soluble on expression in E. coli
MGSSHHHHHHSSGLVPRGSHMDTTVPTFSLAELQQGLHQDEFRRCLRDKGLFYLTDCGLTDTELKSAKDLVIDFFEHGSEAEKRAVTSPVPTMRRGFTGLESESTAQITNTGSYSDYSMCYSMGTADNLFPSGDFERIWTQYFDRQYTASRAVAREVLRATGTEPDGGVEAFLDCEPLLRFRYFPQVPEHRSAEEQPLRMAPHYDLSMVTLIQQTPCANGFVSLQAEVGGAFTDLPYRPDAVLVFCGAIATLVTGGQVKAPRHHVAAPRRDQIAGSSRTSSVFFLRPNADFTFSVPLARECGFDVSLDGETATFQDWIGGNYVNIRRTSKA | soluble
MGEPVILEAVRTPIGKRNGALRAYRPDALYAKVLDALLERTGIDPGLIGDVVTGCVTQVGEQGANVGRLGVLLSRLPKEVPAVSLNRMCGSSQQAVHFAAQAIAAGDVDFAIAGGVESMTRVPMFADIGGGFHTLNPELGKRYELVHQGESAERIAERYGFCREELDEWGYLSHKRAARATEEGRFSAQILPLEGLDAEGRPFLLTRDEGVRPDVDYEKMLALKPVFREDGVVTAGNSSQISDGAAALLLGDREKALALGLRPRARFLARVVVAGDPTLQLLEVIPAAKKALERAGLSLRDVDVIEVNEAFASVVLAFLRELGADPEKVNPNGGAIAHGHPLGATGAVLMTKLLYELERTGSEFGLQVMCIGHGQATATVIQRL | soluble

====

assay: soluble on expression in E. coli; label from the status in PepcDB or PDB records
measured-quantity: soluble on expression in E. coli

input-sequence | measured-quantity | result
MSLGDVVMNERELILAIETSCDETSAAVIENGTTILSNVVSSQIDSHKRFGGVVPEIASRHHVEQITVIVEEAMHEAGVDFADLAAVAVTEGPGLVGALLIGVNAAKAIAFAHQLPLIGVHHIAGHIYANRLLKELEFPLLALVVSGGHTELIYMENHGEFEVIGETRDDAVGEAYDKVARTLGLPYPGGPHIDRLAVNGEDTLQFPRAWLEPDSFDFSFSGLKSAVINTLHNAKQRGENVQAEDVAASFQASVIDVLVTKTKKAAEEYKVRQVLLAGGVAANKGLRTALEEAFFKEPIDLVIPPLSLCTDNAAMIGAAASIKFKQQTFAGMDLNGQPSLELENDEGHHHHHH | soluble on expression in E. coli | soluble
DPGERLYDLNMPAYVKFNYMAEREDELSLIKGTKVIVMEKCSDGWWRGSYNGQVGWFPSNYVTEEGDSPLGDHVG | soluble on expression in E. coli | soluble
GSHMKNSVSVDLPGEMKVLVSKEKNKDGKYDLIATVDKLELKGTSDKNNGSGVLEGVKADKSKVKLTISDDLGQTTLEVFKEDGKTLVSKKVTSKDKSSTEEKFNEKGELSEKKITRADKSSTEEKFNEKGELSEKKITRADKSSTEEKFNEKGELSEKKITRADKSSTEEKFNEKGELSEKKITRADKSSTEEKFNEKGELSEKKITRADKSSTEEKFNEKGEVSEKIITRADGTRLEYTGIKSDGSGKAKEVLKGYVLEGTLTAEKTTLVVKEGTVTLSKNISKSGEVSVELNDTDSSAATKKTAAWNSGTSTLTITVNSKKTKDLVFTKENTITVQQYDSNGTKLEGSAVEITKLDEIKNALK | soluble on expression in E. coli | soluble

====

assay: soluble on expression in E. coli; label from the status in PepcDB or PDB records
measured-quantity: soluble on expression in E. coli

input-sequence | result
GMTGLSQSQASPMQIQPGNAAFNPWTDAALDTIRDVNQALTLYAEMRVVPAHHDAFLAAIDTVSAKLRVLPGFLSLALKQMSGDSTMVKNYPETYKGVLATAYLDGVAAGTQPYFYNLFVRFADGRAARAAGFEALFETHIHPLLHAMAPRGGDGPELLAYRAVLQSVVAGDRHAIYRGAEEIRSFLRRPVELPERETVTVENHVMVPEDKHAAWEPQVAILLQVAQDTFEPQDEPSGVGLPGARDNRYYRKALSTEILRNAHADGGLRAYIMHGVWESVWDHENSHLDPRFLAAAGPVGAAAVVGPVEPFYLTRRLVVAD | soluble
MHTKGPTPQQHDGSALRIGIVHARWNETIIEPLLAGTKAKLLACGVKESNIVVQSVPGSWELPIAVQRLYSASQLQTPSSGPSLSAGDLLGSSTTDLTALPTTTASSTGPFDALIAIGVLIKGETMHFEYIADSVSHGLMRVQLDTGVPVIFGVLTVLTDDQAKARAGVIEGSHNHGEDWGLAAVEMGVRRRDWAAGKTE | soluble

====

assay: soluble on expression in E. coli; label from the status in PepcDB or PDB records

input-sequence | soluble on expression in E. coli
MDIHVLSYGLGNQLSQYAFFINRRQLMQRAYAFYAFKQHNGYELDRIFGLKEGLPWYLQFVRVVFRLGISRRFYSKRTADFVLSLFRIKVIDEAYNYEFDPSLLKPWFGIRILYGGWHDSRYFHPSEAAVRTAFSFPPLDDVNDAILQQIDAVYGVSIHVRRGDYLKGINSNLFGGIATLEYYRNAIGWAITYCKHRSLEIKFYVFSDDIDWCKQNLGLRDAVYVSGNSKTDSWKDILLMSHCRANIIANSTFSWWAAWLNQQPNKVVICPTKFINTDSPNQTIYPAAWHQIEGLEHHHHHH | not soluble
MGSDKIHHHHHHMRVEIIFLGCGGGRWATITQKKATGGFRIHTNELRMHVDPGPGAIVRLNELKISPWRTNALFISHCHPDHYTDGEIIVEAITQGMTKKRGVFLGSLSVVEGFGEYEYVVSKYHQSKLEEVRVLYPGDSAELYDTTIKATHTKHGDPFGIGFRLSTIYGDIGYTSDTEFIPQLIEDFDGVRILIANIVRKKNERIKGHLCSNDAIDLINSMNKKPELLIMNHMGVKMTNPQIEAEYISQNTGIEVIPARLGLKVELLNGKYKYQLIK | not soluble

====

experiment: soluble on expression in E. coli; label from the status in PepcDB or PDB records
measured-quantity: soluble on expression in E. coli

input-sequence | measured-quantity | result
MSLGGQEKEHLTMRAEEWHLVSGAVSMRGRRPTDEDTMVVVAAIHSHRNIRIQALFDGHGGPNVAQFAANRLQSLFARQKGYSRRDLEKICHALDEELKKNNVRRGGSTGVIMVIEKVEKPEKVIVRGRQILKDPGLTPLKEHYRKQAGPAEEITLGTSETPFRLHVANVGDSRAMLVLEDEYYEMTKDHKPEDPEEKSRILRAGASVTDSEGTSVPRIDGSLALSRSFGDFSLKQGSGSTPDAVISTPDVRQFYAGYNDLLVLFCDGVTEPVASSWPQVAAYTREIFVQTGDVVKTAVALAEQAYSAGSQDNLSAVVTRLRPDPAEEGHHHHHH | soluble on expression in E. coli | soluble
MIQKGCTPIEEGSDSEPQAETVPEEADYEAVPVEAYGLAMLRGMGWKPGKGIGNTFSQVVKPRVNSIRPKGLGLGANRMEAQDLASVGSHHPPRPDGDRENDKEGQPQGLMHGRAVVVLSGPYRGLYGKVEGLDPDNVRAMVRLAVGNRIVTVSEYCLRPVSQQEFDSHTSKPGHVSQTSTEQQNRATGTASSLKAAQNQEDSKRRQKGSEKKRKHSPDRQDGPVPKTEKAAPRNKHWLHRDLRVRFIDKLHKSGRYYNTKMTIEDVLSPDTCVCRTDEGRVLEDVREDMLETLIPKGEGHRVMVVLGPHAGKVGLLRSRDRAQSHALVQLRRENQVVELHYNAICQYMGPGDSDED | soluble on expression in E. coli | soluble
VTDILREIGMIARALDSISNIEFKELSLTRGQYLYLVRVCENPGIIQEKIAELIKVDRTTAARAIKRLEEQGFIYRQEDASNKKIKRIYATEKGKNVYPIIVRENQHSNQVALQGLSEVEISQLADYLVRMRKNVSEDWEFVKKGNTRNY | soluble on expression in E. coli | soluble

====

assay: soluble on expression in E. coli; label from the status in PepcDB or PDB records
measured-quantity: soluble on expression in E. coli

input-sequence | result
MSLETVRLQRELIEAQRQTYNEMRTYFTVNGVEGVIGAVFDEGVITLRVPSEVLFAPGAVELAPGADRVLATLKDLFIRRREQNINIKGFTDDVQPSANARFKDNWEVSALRSVNVLRYFLGAGIEPARLTATGLGELDPLFPNTSDENRARNRRVEFVLERRVVREGHHHHHH | soluble
MKMATDDHQPPMVRGRRIKLKYAHAGGYNPPIVVIHGNMVRELPDSYKRYLMNYFRKSLEIMGTPIRINFQNSENPFENRANKLTLSQERKRKRMMSVVKNRKK | not soluble
MKNEMLALILAGGQGTRLGKLTQSIAKPAVQFGGRYRIIDFALSNCANSGIHNVGVVTQYQPLALNNHIGNGSSWGLDGINSGVSILQPYSASEGNRWFEGTSHAIYQNIDYIDSVNPEYVLILSGDHIYKMDYDDMLQSHKDNNASLTVAVLDVPLKEASRFGIMNTDANNRIVEFEEKPAQPKSTKASMGIYIFDWQRLRNMLVAAEKSKVGMSDFGKNVIPNYLESGESVYAYEFSGYWKDVGTIESLWEANMEYISPENALDSRNRQWKIYSRNLISPPNFLGANAHVEDSLVVDGCFVDGTVKHSILSTGAQVREGAEVLDSVIMSGAIIGQGAKIKRAIIGEGAIISDGVEIDGTDEVQVVGYNEVVGVATDED | not soluble
MGSDKIHHHHHHMIPPVPQKGRGTAHNPHNRFAPGHSVAEDDGWYQEVPQTQGTEVRIETAKSVISRNTSPDLPFDRSINPYRGCEHGCIYCYARPSHAYWDLSPGLDFETKLIAKTNAAEVLAQQLSKPGYVCAPINLGSNTDPYQPIEREQLLTRRLLEVLLRFRHPVTIVTKGSLVLRDLDLLAEMARQRLARVMISLTTLDDGLKRVLEPRAASPGARLRAIRVLREAGVPVGVLCSPMIPMINDSELERLLEAAKEAGAQSAAYMMLRLPLEVAPLFEQWLQDHYPQRAAHVLSLIRQSRGGELYDSRFGVRMRGEGVFAELLAQRFAKAMKRLDFEGREAQELDCSAFCPPGGQMALF | not soluble
MGSDKIHHHHHHMPLSSVSRPSTQIQAQSTGKIFIIGLPRTGTTSVCVALLEQGLKVAHQGFTQQSFYQADAIADAPVFSDFKQLDGLFPGAKFVYLSRDIAPWIISMQMLLGRMLIHLDEHTGRFHPIMKRSFNHSFKLNLVTNPFDEVHLKQCYLEHQQTVEEYFTGRNDLLKININQVGSLNRLLEFIELAPQDLASSIKSAPLNFPHLNIGRNVASWDEYKHPNKVSANLSGPNKRKFFDYTLS | not soluble
MSNAPLMPKATAVWLLDNTALTFDQVADFTKMHVLEVKAIADGDAAQGIKGMDPISTGQLTRDEIEKGEGDPDYRLKLAESKVVLPQAAKKKGPRYTPVSRRHERPSAILWLVRNHPELKDAQIMRLVGTTKTTIASVRDRTHWNAATLTPMDPVTLGLCSQLDLDFEVQRAAKEKPIDQQYGGATLLPASETTRKEAEFEAATSGKSQEDLDVDAVFAKLKTIGGKKHDDEDEDGGFLEHHHHHH | soluble
MKYMIGVDGGGTKTEAIAFDKDGNELVRATSGFGNILIDFEEALVHIMEAINQCQKSLINGHCVCVCLGLAGISGANTNELTLRLKKKYGTKIEIFNDAMIAHAAALKGKDGILTIGGTGAICIGKKGEVYQYSGGWGHILGDEGSGYWIALQALKKMAIQFDQGISLCPLSLNIQRQFQLLTPSHIKSLVYTSSKDKIAAIAPLVIQEARDGNDDAHEIMMQAGKELARITVNVYNKLNFKHSTPIAASGSILRLVPEIFAVFKKCCEESMKEITFVSQAEMAVKGTYYLMRDIYFLEHHHHHH | soluble
MNLDKPLLPGQVIGIIGGGHLAKMMALSAREMGFRVGVLDPQIDCPAAQVADWQLLGAYNDPEALEKLAKRAQVITYEFEHADVDALTAIQHLANIPQGTDILAITQDRLMEKSFLEDNNIVIAPYATIVSPTDIQEAIDGIGYPCILKNTRGEGRYVLHSTSDLAPSMNLLREGTCVLEAWIPYEKELSVLISGNGRGEFATFPVVETIKKERKLHETIAPARIDDEVSGELQRIAKVIAKAVGLVGTLSIEMFYTETGGIYVNKILPRPEDAGNFSIDACSFSQYDTHIRGLCNWPMPTIQLLSEAVTVNVLGNEAYETMDIINEHPDWHFHYYGHSEAKAQRAMGHITILTKEIDETLEEIKETKIWS | not soluble
MGFLPISLLHLVIKLLKNSLRKSSRELKDNFYDEPYIVLSELRELKTYFSILSAIAAGKRKPSEMANEVDLEGRKIHSYIETLIRLGFVERDLLVARKEKRWLYIISDPMLMSWFSLVYPKRTEIEIGAMTIDDVKEILQRIFSFRFEQVSREFLIELNRKGNLPFRFTKIGRWWHKEEEIDIVALNEKEKKSLLIEIKWKELKEREIKGILNDLELEGWDKIYGVIAKKVQKKENLWERGFLIWDLEDLDVLAAALEHHHHHH | not soluble
MSLGSGHIRAAEALQKFVVQKYPKSKTLIVDTFKYINPLIHTVVVDGYLNIVKYVPEIYGGLYRMSEHIKNIDRMSRGFSNLLTPKIHRLIQSFKPSIIVCTHPFPLQMIAHLKKHYNLDVPSIAIVTDFVNHPFWFQNNIEAYIVAHDYIKRDMIECGISEDRIFTYGLPVAPEFLKLEHHHHHH | not soluble

Then there is this sequence:
Lab note: measured soluble on expression in E. coli of MNKLQSYFIASVLYVMTPHAFAQGTVTIYLPGEQQTLSVGPVENVAQLVTQPQLRDRLWWPGALLTDSAVKAKALKDYQHVMAQLASWEAEADDDVAATIKSVRQQLLNLNITGRLPVKLDPDFVRVDENSNPPLVGNYTLYTVQRPVTITLLGAVSGAGQLPWQAGRSVTDYLQDHPRLAGADKNNVIVITPEGETVVAPVALWNKRHVEPPPGSQLWLGFSAHVLPEKYADLNDQIVSVLTQRVPD was soluble
